- tested-target: Mitogen-activated protein kinase 7 (Homo sapiens) (UniProt Q13164)
- Sequence (Q13164 whole entry, looked up, the tested form may be a part): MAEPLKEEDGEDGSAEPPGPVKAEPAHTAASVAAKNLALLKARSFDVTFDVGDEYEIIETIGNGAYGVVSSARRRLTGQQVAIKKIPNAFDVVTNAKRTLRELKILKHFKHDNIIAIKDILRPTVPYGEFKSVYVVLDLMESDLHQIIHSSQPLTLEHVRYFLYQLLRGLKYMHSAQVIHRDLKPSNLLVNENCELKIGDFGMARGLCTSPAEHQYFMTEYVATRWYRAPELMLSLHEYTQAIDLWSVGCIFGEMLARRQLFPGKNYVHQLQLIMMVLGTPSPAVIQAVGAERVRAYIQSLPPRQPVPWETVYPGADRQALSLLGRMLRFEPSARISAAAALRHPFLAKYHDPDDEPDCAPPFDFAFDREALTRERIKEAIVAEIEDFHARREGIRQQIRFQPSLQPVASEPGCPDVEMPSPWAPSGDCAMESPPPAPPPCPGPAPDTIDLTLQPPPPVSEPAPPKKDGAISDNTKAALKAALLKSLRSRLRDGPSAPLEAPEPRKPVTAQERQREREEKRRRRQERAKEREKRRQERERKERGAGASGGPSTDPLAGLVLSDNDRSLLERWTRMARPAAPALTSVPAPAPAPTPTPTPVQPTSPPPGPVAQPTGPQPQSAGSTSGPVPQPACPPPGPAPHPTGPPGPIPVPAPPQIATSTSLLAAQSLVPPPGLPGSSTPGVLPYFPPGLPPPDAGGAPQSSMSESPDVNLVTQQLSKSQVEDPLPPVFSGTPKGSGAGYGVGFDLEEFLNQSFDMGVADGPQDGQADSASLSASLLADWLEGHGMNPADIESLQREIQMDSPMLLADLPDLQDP
- test-method-notes: ERK5 transactivation activators in reporter cells, primary screen, cell-based, HTS (AID 1508626);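 note: luciferase driven by Gal4-ERK5 fusion binding five Gal4 sites before minimal TATA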
- test-parameters: HeLa Gal4-ERK5 transactivation, 18 h, at 5 µM, stronger effect = higher value
The source made the active and inactive calls.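 Rule for the calls: active = luciferase signal above three times the same-plate solvent-only control wells; inactive = the rest.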
Reported values of luciferase signal for individual entries

Some molecules with known luciferase signal results, for comparison:
So what does the record say about luciferase signal for "CCCCC1=NC2(CCCC2)C(=O)N1Cc1ccc(-c2ccccc2-c2nn[nH]n2)cc1" ?
56 AU (inactive)

Same question, "NC(N)=NC(=O)c1nc(Cl)c(N)nc1N" this time
44 AU (inactive)

More entries:
Param item = "C[C@]12C=CC(=O)C=C1CC[C@@H]1[C@@H]2[C@@H](O)C[C@@]2(C)[C@H]1CC[C@]2(O)C(=O)CO" ; retrieve measured luciferase signal.
84 AU (inactive)

* * *

- test-method-notes: rescue of polyQ-huntingtin neuronal dysfunction in worms, whole organism, C. elegans mechanosensory neurons, N-terminal huntingtin (AID 1599)
- test-parameters: touch response, stronger effect = higher value
Entries with a potency or affinity are not part of this list.
Binary classification by rescue above control, with 0 as an inclusive lower bound for t; all other cases are f.

Observe how each entry below is paired with its result.
Please indicate if the recorded rescue above control for "Cn1cnc([N+](=O)[O-])c1Sc1ncnc2nc[nH]c12" meets or exceeds 0.
f

Next up: "Clc1cccc(Cl)c1NC1=NCCN1"
t

Repeat with OC(CCN1CCCCC1)(c1ccccc1)C1CCCCC1 (stereo unspecified)
t

# ---- query molecule ----
Could you tell me if the measured rescue above control of "CC(=O)Nc1nnc(S(N)(=O)=O)s1" reaches 0 or more?
t

* * *

- test-method-notes: inhibition of endothelial tube formation, primary screen, imaging, VEGF stimulated, CD31 staining, tube area, NPC library (AID 1117340)
- test-parameters: VEGF-stimulated ADSC/ECFC co-culture, at 10 µM, stronger effect = higher value
Positions of bridges follow the written chain, without caps; N, C: chain ends. Non-standard residues stand in square brackets, D forms with d. Residues, ends and D or L forms follow the SMILES beside them. hArg = N=C(N)NCCCC[C@H](N)C(=O)O; Mpa = O=C(O)CCS
Classification field: enter 1 for tube area decrease values not below 10%, 0 for values below it.

Previously resolved entries follow.
Answer whether tube area decrease of Cc1c(F)cc2c(=O)c(C(=O)O)cn3c2c1CCC3C (stereo unspecified) is greater than or equal to 10%.
0

# iterate: "C[C@@H](N)C(=O)O"
1

Please answer likewise for "C[C@H](CCC(=O)O)[C@H]1CC[C@H]2[C@H]3[C@@H](CC[C@]12C)[C@@]1(C)CC[C@@H](O)C[C@H]1C[C@@H]3O"
0

# iterate: "O=C(CN1CCNCC1)NC1CCCCC1"
1

Next:
Item "O=C(O)c1cc(=O)c2c(OCC(O)COc3cccc4oc(C(=O)O)cc(=O)c34)cccc2o1" with tube area decrease of 10% or above?
0

Same question for Cc1ncc([N+](=O)[O-])n1CC(C)O (stereo unspecified) please.
0

One more compound: Cc1cccc(CN2CCN(C(c3ccccc3)c3ccc(Cl)cc3)CC2)c1 (stereo unspecified)
1

Continue with CCN1C(=O)c2ccccc2C1Nc1ccc(OCCN2CCCCC2)cc1 (stereo unspecified)
1

Subsequent entry: "Cc1cc(O)c(C)c(C)c1O"
0

Another compound to look at: "COc1ccc([C@@H]2Sc3ccccc3NC(=O)[C@@H]2O)cc1"
1

Next record, please: NC(=O)[C@@H]1CSSCCC(=O)N[C@@H](CCCCN=C(N)N)C(=O)NCC(=O)N[C@@H](CC(=O)O)C(=O)N[C@@H](Cc2c[nH]c3ccccc23)C(=O)N2CCC[C@H]2C(=O)N1 ([Mpa][hArg]GDWPC-NH2; disulfide 1-7)
1

Try this compound too: "CCOC(=O)[C@H](CCc1ccccc1)N[C@@H](C)C(=O)N1Cc2ccccc2C[C@H]1C(=O)O"
0

Could you do the same for "CC(C)=CCC/C(C)=C/CC/C(C)=C/CCC(=O)OC/C=C(\C)CCC=C(C)C" , please?
0

What about this compound? "CCOC(=O)C(=O)c1csc(NC=O)n1"
0

Here is the next compound: "CCN(CC)c1ccc(C(=C2C=CC(=[N+](CC)CC)C=C2)c2cc(S(=O)(=O)O)ccc2S(=O)(=O)[O-])cc1"
1

Same read-out for "CCN(CC)C(=O)[C@]1(c2ccccc2)C[C@H]1CN" ?
0

Do the same for "Nc1c(NC/C=C\COc2cc(CN3CCCCC3)ccn2)c(=O)c1=O" please
0

Field entry: "O=C(/C=C/c1ccccc1)NCCO"
1

What about "CC[C@H](C)C(=O)O[C@H]1C[C@@H](C)C=C2C=C[C@H](C)[C@H](CC[C@@H]3C[C@@H](O)CC(=O)O3)[C@H]21" ?
1

Another compound to check: "O[C@@H]1CO[C@H]2[C@@H]1OC[C@@H]2O"
1

Same question, CCO[C@@H]1O[C@H](C(COCc2ccccc2)OCc2ccccc2)[C@H](OCc2ccccc2)[C@H]1O (stereo partly specified) this time
1
